Data origin: patent US20070265278A1

Subject of test: DP receptor (Homo sapiens, UniProt Q13258)
Construct: using the human cell line LS174T, which expresses the endogenous DP receptor; endogenous in cells
Sequence (Q13258 whole entry): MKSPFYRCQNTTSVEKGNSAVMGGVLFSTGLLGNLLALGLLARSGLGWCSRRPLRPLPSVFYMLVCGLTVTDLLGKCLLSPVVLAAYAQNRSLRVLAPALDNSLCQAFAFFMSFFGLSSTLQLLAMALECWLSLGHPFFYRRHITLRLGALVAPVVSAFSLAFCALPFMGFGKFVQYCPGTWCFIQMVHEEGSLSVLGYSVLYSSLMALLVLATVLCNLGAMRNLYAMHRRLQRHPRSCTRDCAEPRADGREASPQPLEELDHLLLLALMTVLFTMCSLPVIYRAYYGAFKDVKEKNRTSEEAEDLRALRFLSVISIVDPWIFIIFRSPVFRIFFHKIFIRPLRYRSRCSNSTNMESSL
Experiment summary: SPA cAMP assay in human LS174 T cells (human DP functional assay)
Measurement setup: inhibition of PGD2 (15 nM)-stimulated cAMP, LS174T cells expressing endogenous DP receptor
pIC50: −log10 of the molar value.

[
  {
    "Molecule": "O=C(Cc1c(-c2ccc(Cl)c(S(=O)(=O)NC3CCCCC3)c2)[nH]c2ccccc12)NS(=O)(=O)c1ccccc1",
    "pIC50": 8.30
  },
  {
    "Molecule": "O=C(O)Cc1c(-c2ccc(Cl)c(S(=O)(=O)NCCC3CCCCC3)c2)[nH]c2ccccc12",
    "pIC50": 7.46
  },
  {
    "Molecule": "CN(C1CCCCC1)S(=O)(=O)c1cccc(-c2[nH]c3ccccc3c2CC(=O)O)c1 [Example 10(e)]",
    "pIC50": 6.46
  },
  {
    "Molecule": "O=C(O)Cc1c(-c2ccc(Cl)c(S(=O)(=O)NC3CCOCC3)c2)[nH]c2ccccc12",
    "pIC50": 7.28
  },
  {
    "Molecule": "O=C(O)Cc1c(-c2ccc(Cl)c(S(=O)(=O)NC3CCCCC3)c2)[nH]c2ccccc12",
    "pIC50": 8.66
  },
  {
    "Molecule": "O=C(O)Cc1c(-c2ccc(S(=O)(=O)NC3CCCCC3)cc2)[nH]c2ccccc12",
    "pIC50": 5.93
  },
  {
    "Molecule": "O=C(O)Cc1c(-c2ccc(Cl)c(S(=O)(=O)NC3CCCCC3)c2)[nH]c2cc(Cl)ccc12",
    "pIC50": 9.00
  },
  {
    "Molecule": "O=C(O)Cc1c(-c2ccc(Cl)c(S(=O)(=O)NCC34CC5CC(CC(C5)C3)C4)c2)[nH]c2ccccc12",
    "pIC50": 8.07
  },
  {
    "Molecule": "O=C(O)c1c(-c2ccc(Cl)c(S(=O)(=O)NC3CCCCC3)c2)[nH]c2ccccc12",
    "pIC50": 6.13
  },
  {
    "Molecule": "CC(C)(C)c1ccc2[nH]c(-c3ccc(Cl)c(S(=O)(=O)NC4CCCCC4)c3)c(CC(=O)O)c2c1 [Example 1(s)]",
    "pIC50": 8.40
  },
  {
    "Molecule": "NC(=O)Cc1c(-c2ccc(Cl)c(S(=O)(=O)NC3CCCCC3)c2)[nH]c2ccccc12",
    "pIC50": 6.88
  },
  {
    "Molecule": "O=C(O)Cc1c(-c2ccc(Cl)c(S(=O)(=O)NC3CCCCC3)c2)[nH]c2ccc(O)cc12",
    "pIC50": 8.38
  },
  {
    "Molecule": "Cn1c(-c2ccc(Cl)c(S(=O)(=O)NC3CCCCC3)c2)c(CCO)c2ccccc21",
    "pIC50": 5.06
  },
  {
    "Molecule": "COC(=O)[C@@H](NC(=O)Cc1c(-c2ccc(Cl)c(S(=O)(=O)NC3CCCCC3)c2)[nH]c2ccccc12)C(C)C",
    "pIC50": 6.80
  },
  {
    "Molecule": "O=C(O)Cc1c(-c2ccc(Cl)c(NS(=O)(=O)c3ccccc3)c2)[nH]c2ccccc12",
    "pIC50": 7.41
  },
  {
    "Molecule": "O=C(O)Cc1c(-c2ccc(Cl)c(S(=O)(=O)NC3CCCCC3)c2)n(Cc2ccccc2)c2ccccc12",
    "pIC50": 7.38
  },
  {
    "Molecule": "O=C(O)Cc1c(-c2ccc(Cl)c(S(=O)(=O)NC3Cc4ccccc4C3)c2)[nH]c2ccccc12",
    "pIC50": 8.02
  }
]

----------
Subject of test: DP receptor (Homo sapiens, UniProt Q13258)
Construct: using the human cell line LS174T, which expresses the endogenous DP receptor; endogenous in cells
Experiment summary: SPA cAMP assay in human LS174 T cells (human DP functional assay)
Measurement setup: inhibition of PGD2 (15 nM)-stimulated cAMP, LS174T cells expressing endogenous DP receptor
Here, each record is paired with measured log10 IC50 data.
Experimental endpoint: log10 IC50 (log10 of the value in nM)

[
  {
    "Compound": "O=C(O)c1ccc2cc(-c3ccc(Cl)c(S(=O)(=O)NC4CCCCC4)c3)[nH]c2c1 [Example 16]",
    "log10 IC50": 2.71
  },
  {
    "Compound": "O=C(O)Cc1c(-c2ccc(Cl)c(S(=O)(=O)NCc3ccc(C(F)(F)F)cc3)c2)[nH]c2ccccc12 [Example 1(y)]",
    "log10 IC50": 1.28
  },
  {
    "Compound": "Cc1ccc(-c2[nH]c3ccccc3c2CC(=O)O)cc1S(=O)(=O)NC1CCCCC1 [Example 10(k)]",
    "log10 IC50": 0.30
  },
  {
    "Compound": "COc1ccc2[nH]c(-c3ccc(Cl)c(S(=O)(=O)NC4CCCCC4)c3)c(CC(=O)O)c2c1 [Example 10(a)]",
    "log10 IC50": 0.48
  },
  {
    "Compound": "CN(C1CCCCC1)S(=O)(=O)c1cc(-c2[nH]c3ccccc3c2CC(=O)O)ccc1Cl [Example 1(x)]",
    "log10 IC50": 2.54
  },
  {
    "Compound": "CCCCCCNS(=O)(=O)c1cc(-c2[nH]c3ccccc3c2CC(=O)O)ccc1Cl [Example 1(c)]",
    "log10 IC50": 1.49
  },
  {
    "Compound": "CC(C)NS(=O)(=O)c1cc(-c2[nH]c3ccccc3c2CC(=O)O)ccc1Cl [Example 1(g)]",
    "log10 IC50": 1.69
  },
  {
    "Compound": "O=C(O)Cc1c(-c2ccc(S(=O)(=O)NC3CCCCC3)c(Cl)c2)[nH]c2ccccc12 [Example 10(j)]",
    "log10 IC50": 3.09
  },
  {
    "Compound": "O=C(O)Cc1c(-c2cccc(S(=O)(=O)NC3CCCCC3)c2)[nH]c2ccccc12 [Example 10(f)]",
    "log10 IC50": 2.03
  },
  {
    "Compound": "COc1ccc(-c2[nH]c3ccccc3c2CC(=O)O)cc1S(=O)(=O)NC1CCCCC1 [Example 10(i)]",
    "log10 IC50": 1.80
  },
  {
    "Compound": "Cn1c(-c2ccc(Cl)c(S(=O)(=O)NC3CCCCC3)c2)c(CC(=O)O)c2ccccc21 [Example 2(a)]",
    "log10 IC50": 1.72
  },
  {
    "Compound": "O=C(O)Cc1c(-c2ccc(Cl)c(S(=O)(=O)N3CCCCC3)c2)[nH]c2ccccc12 [Example 1(p)]",
    "log10 IC50": 2.83
  },
  {
    "Compound": "O=C(O)Cc1c(-c2ccc(Cl)c(NC(=O)C3CCCCC3)c2)[nH]c2ccccc12 [Example 14]",
    "log10 IC50": 3.77
  },
  {
    "Compound": "O=C(O)Cc1c(-c2ccc(Cl)c(S(=O)(=O)NC3CC4CCC3C4)c2)[nH]c2ccccc12 (stereo not shown) [Example 1(b)]",
    "log10 IC50": 0.48
  },
  {
    "Compound": "O=C(O)Cc1c(-c2ccc(Cl)c(S(=O)(=O)NC3CCCCC3)c2)[nH]c2ccc(OC(F)(F)F)cc12 [Example 1(v)]",
    "log10 IC50": 0.62
  },
  {
    "Compound": "O=C(O)Cc1c(-c2cc(C(F)(F)F)cc(S(=O)(=O)NC3CCCCC3)c2)[nH]c2ccccc12 [Example 12]",
    "log10 IC50": 2.37
  }
]
